Would you mind telling me the reported logP of each entry?
Assay: Partition coefficient, log P of the compound
Assay type: physicochemical
Settings: octanol/water
Keep the answer to the number alone.

Entry "COc1ccccc1N1CCN(CCCCNC(=O)c2ccc(N(C)C)cc2)CC1" , logP reported as 3.09

So for "O=C(NCCCCN1CCN(c2ccccc2OCCF)CC1)c1ccc(OCCF)cc1" , the logged logP turned out to be 3.73

Record "O=C(NC/C=C/CN1CCN(c2ccccc2OCCF)CC1)c1ccc(OCCF)cc1" . Reported logP: 3.81

logP for "COc1ccccc1N1CCN(C/C=C/CNC(=O)c2ccc(CCF)cc2)CC1" is 3.43

logP in this record for "COc1ccccc1N1CCN(CCCCNC(=O)c2ccc(OCCF)cc2)CC1" : 3.48

Query "O=C(NC/C=C/CN1CCN(c2ccccc2OCCF)CC1)c1ccc(OCCOCCF)cc1" yields logP of 3.41

Record "COc1ccccc1N1CCN(C/C=C/CNC(=O)c2cc(C)ccc2OCCF)CC1" , field logP: 3.66

# logP (compound: "CN(C)c1ccc(C(=O)NCCCCN2CCN(c3ccccc3OCCF)CC2)cc1" ) is 3.75
